Listed here: items and their measured inhibition.
# Assay remarks: M. tuberculosis H37Rv growth inhibitors, H37Rv strain (AID 1626);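 further: bacteria incubated seven days before Alamar blue readout; 0% = bacteria only wells and 100% = bacteria with antibiotic wells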
# Recorded conditions: stronger effect = higher value, concentration not given here
Out of some 220,000 compounds screened, about 2,000 (0.91%) were called active. Roughly 2% stayed inconclusive and do not appear here. These entries were drawn from the full list. Potency and affinity values are given separately.
Property: inhibition (%)

Molecule | Measure unit | Reported value
Cc1ccc(OC(=O)c2ccc(N3CCOCC3)c([N+](=O)[O-])c2)cc1 | % | 54.1
CCc1nnc(NC(=O)c2ccc(-c3ccc(Cl)cc3)o2)s1 | % | 3.33
O=C(OCC(=O)N1CCOCC1)c1ccc(N2CCOCC2)c([N+](=O)[O-])c1 | % | -0.57
O=C(NC1=NCCS1)c1cc2ccccc2o1 | % | -1.2
COc1ccccc1NC(=S)NC(=O)c1ccc(-c2ccc(Cl)cc2)o1 | % | 79.3
O=[N+]([O-])c1cc(Cl)ccc1N1CCOCC1 | % | -3.75
O=C(O)c1ccccc1C(=O)c1ccc(N2CCOCC2)c([N+](=O)[O-])c1 | % | 3.64
CCn1nnc(NC(=O)Cc2ccc(Cl)cc2)n1 | % | -0.3
CN1CCc2c(C#N)c(N3CCOCC3)nc(NCC3CCCO3)c2C1 (stereo unspecified) | % | -11.2
Cc1onc(-c2ccccc2Cl)c1C(=O)N1C=CC(C(F)(F)Cl)=NCC1 | % | 1.09
O=C(Nc1ccccc1N1CCOCC1)c1ccc(N2CCOCC2)c([N+](=O)[O-])c1 | % | 6.98

###

Quick list: inhibition per entry.
# Assay remarks: M. tuberculosis H37Rv growth inhibitors, H37Rv strain (AID 1626)
# Recorded conditions: stronger effect = higher value, concentration not given here
Out of some 220,000 compounds screened, about 2,000 (0.91%) were called active. About 2% were inconclusive and are not listed. A selection follows. Potency and affinity values are given separately.

Compound | inhibition, %
O=c1oc(-c2cccc(Cl)c2)nc2c1cnn2-c1ccccc1 | 22.1
COc1ccc(CC(=O)Nc2nc(-c3cccc([N+](=O)[O-])c3)cs2)cc1 | 1.75
O=C(O)COc1ccccc1Cc1ccccc1 | -9.69
COc1cc(C(C[N+](=O)[O-])c2c(N)n(C)c(=O)n(C)c2=O)ccc1O (stereo unspecified) | 1.8
O=c1oc(-c2ccccc2)nc2c1cnn2-c1ccccc1 | 19.8
CC(=O)Nc1nc(-c2cccs2)cs1 | -6.43

###

# Assay remarks: M. tuberculosis H37Rv growth inhibitors, H37Rv strain (AID 1626)
# Recorded conditions: stronger effect = higher value, concentration not given here
The whole screen tested about 220,000 compounds, of which about 2,000 (0.91%) were called active. Inconclusive results (about 2%) are left out. These entries were drawn from the full list. Results with a measured potency or affinity are listed apart.

Compound | Measure unit | inhibition
O=C(CN(CCc1ccccc1)S(=O)(=O)c1ccc(Br)cc1)N/N=C/c1ccccc1C(=O)O | % | 1.98
O=C1c2cccc3cccc(c23)C(=O)N1CC1CCCO1 (stereo unspecified) | % | 0.46
COc1ccc(C(C)=O)cc1CSc1nnc(-c2ccncc2)n1C | % | -2.28
S=C(NCc1ccco1)Nc1ccc(Br)cc1Cl | % | 4.87
COc1cc(-c2nnc(SCC(=O)c3ccccc3)o2)cc(OC)c1OC | % | -0.24
O=C1c2cccc3cccc(c23)C(=O)N1c1ccccn1 | % | 2
Cc1ccc(N2C(=O)c3cccc4c([N+](=O)[O-])ccc(c34)C2=O)c2cccnc12 | % | -2.68
CC(=O)Nc1c(C(=O)C2CC2)oc2ccccc12 | % | 8.66
CCOC(=O)CSc1nnc(-c2cccnc2)o1 | % | -8.92
O=C(CNC(=O)c1ccco1)Nc1ccc(S(=O)(=O)N2CCCC2)cc1 | % | -5.82
CCOc1ccc(C(c2c(NC(=O)c3ccccc3)sc(C)c2C)N2CCN(C)CC2)cc1 (stereo unspecified) | % | 17.1

###

# Assay remarks: M. tuberculosis H37Rv growth inhibitors, H37Rv strain (AID 1626)
# Recorded conditions: stronger effect = higher value, concentration not given here
Screen size: about 220,000 compounds; about 2,000 (0.91%) were called active. Roughly 2% stayed inconclusive and do not appear here. Only a sample is shown. Measured potencies and affinities stand elsewhere.
Measured inhibition accompanies every entry in the list below.

Compound | Measure unit | inhibition
CCCCNC(=O)COC(=O)c1ccc(Cl)c(S(N)(=O)=O)c1 | % | -0.33
CC(C)(C)NC(=O)COC(=O)c1cc(F)c(F)cc1Cl | % | 38.6
CCN1CCN(C(=O)c2nn(-c3ccc(C)cc3)c(=O)c3c2c2ccccc2n3C)CC1 | % | 1.02
CCOc1cccc(CN2CCCC(CCC(=O)NCc3ccccc3F)C2)c1O (stereo unspecified) | % | -1.53
CNC(=O)COC(=O)c1cc(F)c(F)cc1Cl | % | 4.23
S=C1NC2=C(CCCC2)C2(CCCCC2)N1 | % | 3.82

###

The following compounds are listed with their measured inhibition values.
# Assay remarks: M. tuberculosis H37Rv growth inhibitors, H37Rv strain (AID 1626);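 further: bacteria incubated seven days before Alamar blue readout; 0% = bacteria only wells and 100% = bacteria with antibiotic wells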
# Recorded conditions: stronger effect = higher value, concentration not given here
The whole screen tested about 220,000 compounds, of which about 2,000 (0.91%) were called active. About 2% were inconclusive and are not listed. A selection follows. Potency and affinity values are given separately.
Property: inhibition (%)

Compound | Reported value
Oc1ccccc1-c1nc(N2CCCC2)c2ccccc2n1 | -6.53
c1ccc2c(c1)nc(N1CCCCC1)c1ccccc12 | 12.2
Cc1cccc(C)c1OCC(=O)OC/C(O)=C(\C#N)c1nc2ccccc2[nH]1 | 3.83
Cc1cc(C)cc(OCC(=O)OC/C(O)=C(\C#N)c2nc3ccccc3[nH]2)c1 | 13
Cc1cc(Br)ccc1SCC(=O)OC/C(O)=C(\C#N)c1nc2ccccc2[nH]1 | 77.9
c1ccc2c(N3CCCCC3)nc(N3CCCC3)nc2c1 | -8.46
CC(C)C(=O)OC/C(O)=C(\C#N)c1nc2ccccc2[nH]1 | -0.61
CC1CCN(c2nc(-c3ccccc3O)nc3ccccc23)CC1 | -2.32
COCC(=O)OC/C(O)=C(\C#N)c1nc2ccccc2[nH]1 | 43.4
CCc1ccc(NC(=O)C(C)OC(=O)C2CCC(=O)N2)cc1 (stereo unspecified) | -4.48
c1ccc2c(N3CCCC3)nc(-c3ccncc3)nc2c1 | 6.26

###

# Assay remarks: M. tuberculosis H37Rv growth inhibitors, H37Rv strain (AID 1626);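 further: bacteria incubated seven days before Alamar blue readout; 0% = bacteria only wells and 100% = bacteria with antibiotic wells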
# Recorded conditions: stronger effect = higher value, concentration not given here
The whole screen tested about 220,000 compounds, of which about 2,000 (0.91%) were called active. Roughly 2% stayed inconclusive and do not appear here. Not all results are given here. Potency and affinity values are given separately.

Smiles notation | Measure unit | inhibition
O=C(Nc1nnc(SCc2c(Cl)cccc2Cl)s1)c1ccc2ncsc2c1 | % | 29.9
CC(=O)Nc1nnc(SCc2ccc(F)cc2)s1 | % | 1.23
O=C(Nc1nnc(C2CC2)s1)c1ccncc1 | % | -4.03
Cc1cnc(C(=O)Nc2nnc(C)s2)cn1 | % | -5.75
CSc1ncccc1C(=O)Nc1nnc(C2CC2)s1 | % | 0.73
CC1(C)C(c2ccccc2)=[N+]([O-])CN1O | % | -10.2
CCSc1nnc(NC(=O)c2cccnc2Cl)s1 | % | -8.72

###

# Assay remarks: M. tuberculosis H37Rv growth inhibitors, H37Rv strain (AID 1626);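 further: bacteria incubated seven days before Alamar blue readout; 0% = bacteria only wells and 100% = bacteria with antibiotic wells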
# Recorded conditions: stronger effect = higher value, concentration not given here
Hit rate of the full screen: of about 220,000 compounds, about 2,000 (0.91%) were called active. Another 2% or so got no clear call; they are omitted. The list is a sample of the results. Results with a measured potency or affinity are listed apart.
Consider the following molecules and their measured inhibition readings.

Molecule | inhibition
CCN1CCC(O)(c2ccccc2)C(C(=O)c2ccccc2)C1 (stereo not drawn) | 50.9% (inactive)
Cc1ccc(-c2nc3cc(N)ccc3o2)c(C)c1 | 8.94% (inactive)
COc1ccc(CN(CC2CCCO2)C(=O)c2cc3sccc3n2C)c(OC)c1 (stereo not drawn) | -12% (inactive)
Cc1nc(N2CCOCC2)c2cc(-c3ccccc3)sc2n1 | 5.12% (inactive)
Cc1ccc2nc(-c3cc(N)cc(N)c3)oc2c1 | 56.3% (inactive)
CCCCCC(=O)N1CC2(CC(c3cccc(NC(=O)CC(c4ccccc4)c4ccccc4)c3)=NO2)C[C@@H]1C(N)=O (stereo partly drawn) | 11.1% (inactive)
Cc1cc(OC2CCCCC2)nc(NCc2ccccc2)n1 | 6.25% (inactive)
CCc1ccc2oc(-c3cccc(N)c3)nc2c1 | 5.28% (inactive)
CS(=O)(=O)N1Cc2ccccc2CC1C(=O)Nc1ccccc1C(N)=O (stereo not drawn) | 0.87% (inactive)
Cc1ccc(/C=N/Nc2cc(C)nc(NCc3ccccc3)n2)cc1 | -1.4% (inactive)
Cc1ccc(SCc2cc(=O)[nH]c(N3CCN(Cc4ccc5c(c4)OCO5)CC3)n2)cc1 | 4.26% (inactive)
CCC(=O)Nc1ccccc1C(=O)OCc1ccc(C(=O)c2ccccc2)cc1 | 27.4% (inactive)
Cn1c(N)c(C(=O)COC(=O)c2cnc(Cl)c(Cl)c2)c(=O)n(C)c1=O | -6.46% (inactive)
CCc1ccc2oc(-c3cc(N)ccc3Cl)nc2c1 | 1.18% (inactive)
Cc1ccc(C)c(-c2nc3cc(N)ccc3o2)c1 | 77.1% (inactive)
CCCCN1CCC(O)(c2ccccc2)C(C(=O)c2ccccc2)C1 (stereo not drawn) | 5.96% (inactive)
Cc1nc(N2CCN(C)CC2)c2cc(-c3ccccc3)sc2n1 | -3.54% (inactive)
CC(C)Cn1c(N)c(C(=O)COC(=O)c2ccc(Cl)cc2)c(=O)n(C)c1=O | 11.4% (inactive)
CN(C)CCCN(Cc1ccccc1)C(=S)Nc1ccc(OC(F)F)cc1 | 4.19% (inactive)
Cc1ccc2nc(-c3cccnc3)oc2c1 | -9.72% (inactive)
O=C(NCCNC(=O)c1ccc([N+](=O)[O-])cc1)c1ccncc1 | -5.65% (inactive)
Cc1cc(N/N=C/c2ccccc2)nc(NCc2ccccc2)n1 | 7.85% (inactive)
COc1ccc(Nc2cc(C)nc(NCc3ccccc3)n2)cc1 | 20.5% (inactive)
